tested on: A-431; assay: Inhibition of kynurenine production in IFNgamma-treated human A431 cells at 1 uM after 24 hrs in presence of tryptophan relative to control; format: functional; conditions: A-431, 24 h
Hi there, I'd appreciate the recorded inhibition at 1 µM for every entry that follows.
One number for each entry, in %.

Record excerpt, results attached:
> print(dat)
                                   compound  tested.system  value.units  measured.value
1   Clc1ccc2[nH]c(SCc3ccccc3Oc3ccccc3)nc2c1          A-431            %              39
2   Clc1ccc2[nH]c(SCc3ccccc3Cc3ccccc3)nc2c1          A-431            %              13
3  Clc1ccc2[nH]c(SCc3ccccc3CCCc3ccccc3)nc2c1          A-431            %              44
4  Clc1ccc2[nH]c(SCc3ccccc3OCc3ccccc3)nc2c1          A-431            %              30
5     Clc1ccc2sc(SCc3ccccc3CCc3ccccc3)nc2c1          A-431            %              -8

Okay, next one:
Query: What does the data say about its inhibition at 1 µM? Entry: [O-][S+](Cc1ccccc1)c1ccccc1CSc1nc2cc(Cl)ccc2[nH]1 (stereo unspecified)
Response: 30

###

Hi there, I'd appreciate the recorded inhibition for every entry that follows.
biological target: Indoleamine 2,3-dioxygenase 1 (Homo sapiens); test: Inhibition of recombinant human IDO at 10 uM using L-tryptophan as substrate after 60 mins relative to control
Numbers only, in %.

> print(dat)
                                   molecule                             tested.system  value.units  measured.value
1  Clc1ccc2[nH]c(SCc3ccccc3OCc3ccccc3)nc2c1  Indoleamine 2,3-dioxygenase 1 (Homo sapiens)            %               3
2  Clc1ccc2[nH]c(SCc3ccccc3C#Cc3ccccc3)nc2c1  Indoleamine 2,3-dioxygenase 1 (Homo sapiens)            %              52

State the recorded inhibition for every item in the following list.
1. Clc1ccc2[nH]c(SCc3ccccc3CCc3ccccc3)nc2c1
2. c1ccc(CCc2ccccc2CSc2nccs2)cc1
3. c1ccc(CCc2ccccc2CSC2=NCCN2)cc1
4. c1ccc(CCc2ccccc2CSc2nc3ccccc3[nH]2)cc1
5. O=S(=O)(Cc1ccccc1)c1ccccc1CSc1nc2cc(Cl)ccc2[nH]1
6. Clc1ccc2[nH]c(SCc3ccccc3Oc3ccccc3)nc2c1

Response:
[47, 31, 17, 43, 24, 30]

State the recorded inhibition for every item in the following list.
1. Clc1ccc2oc(SCc3ccccc3CCc3ccccc3)nc2c1
2. [O-][S+](Cc1ccccc1)c1ccccc1CSc1nc2cc(Cl)ccc2[nH]1 (stereo unspecified)
3. Clc1ccc2[nH]c(SCc3ccccc3Cc3ccccc3)nc2c1

Response:
[21, 11, 46]
